Tested on: T47D
Procedure Details: Cytotoxicity against human T47D cells at 10 uM
Assay type: functional
Condition Info: read-out: GI
Measured Parameter: inhibition of growth at 10 µM (%)

Cc1cc(S(=O)(=O)NC(=N)Nc2ccc(S(N)(=O)=O)cc2)c(SCc2cc3c(cc2Cl)OCO3)cc1Cl = 23
Cc1cc(S(=O)(=O)NC(=N)NCc2ccc(S(N)(=O)=O)cc2)c(SCc2ccccc2)cc1Cl = 35
Cc1cc(S(=O)(=O)NC(=N)Nc2cccc(S(N)(=O)=O)c2)c(SCc2ccccc2)cc1Cl = 13
Cc1cc(S(=O)(=O)NC(=N)Nc2nnc(S(N)(=O)=O)s2)c(SCc2ccccc2)cc1Cl = 6
Cc1cc(S(=O)(=O)NC(=N)Nc2nnc(S(N)(=O)=O)s2)c(SCc2cccc3ccccc23)cc1Cl = 17
Cc1cc(S(=O)(=O)NC(=N)NCc2ccc(S(N)(=O)=O)cc2)c(SCc2ccc(C(F)(F)F)cc2)cc1Cl = 30
Cc1cc(S(=O)(=O)NC(=N)Nc2ccc(S(N)(=O)=O)cc2)c(SCc2ccc(C(F)(F)F)cc2)cc1Cl = 58
Cc1cc(S(=O)(=O)NC(=N)NCc2ccc(S(N)(=O)=O)cc2)c(SCc2cc3c(cc2Cl)OCO3)cc1Cl = 48
Cc1cc(S(=O)(=O)NC(=N)Nc2cccc(S(N)(=O)=O)c2)c(SCc2ccc(C(F)(F)F)cc2)cc1Cl = 35
